# Tested on: Proteus mirabilis GN 79
# experimental-protocol: MIC by agar-dilution method, Proteus mirabilis GN 79
# Format: cell-based
# condition-set: GN79, read-out: MIC.
Structures can show the parent of a compound that is named as a salt.
experimental-endpoint: MIC (µg/mL)
Use µg/mL as the unit, but write only the number.

Reference set, count: 3
- compound: "CO/N=C(\\C(=O)NC1C(=O)N2C(C(=O)O)=C(/C=C\\c3scnc3Cl)CSC12)c1csc(N)n1 (stereo not shown) [Example 21, sodium salt]"
  system-under-test: "Proteus mirabilis GN 79"
  MIC (µg/mL): 0.2
- compound: "CO/N=C(\\C(=O)NC1C(=O)N2C(C(=O)O)=C(/C=C\\c3ccco3)CSC12)c1csc(N)n1 (stereo not shown)"
  system-under-test: "Proteus mirabilis GN 79"
  MIC (µg/mL): 0.78
- compound: "CO/N=C(\\C(=O)NC1C(=O)N2C(C(=O)O)=C(/C=C\\c3scnc3C)CSC12)c1csc(N)n1 (stereo not shown)"
  system-under-test: "Proteus mirabilis GN 79"
  MIC (µg/mL): 0.39

Next:
[in] Tell me measured MIC for CO/N=C(\C(=O)NC1C(=O)N2C(C(=O)O)=C(/C=C/c3cnc(C)s3)CSC12)c1csc(N)n1 (stereo not shown) please.
[out] 0.2

###

Entries and their MIC values follow.
# Tested on: Proteus rettgeri GN 624
# experimental-protocol: MIC by agar-dilution method, Proteus rettgeri GN 624
# Type: cell-based
# condition-set: Providencia rettgeri, GN624, read-out: MIC.
The figure you give is taken to be in mg/L; do not add the unit.

- molecule: "CO/N=C(\\C(=O)NC1C(=O)N2C(C(=O)O)=C(/C=C\\c3ccccc3)CSC12)c1csc(N)n1 (stereo not shown)"
  readout-value: 3.13
- molecule: "CO/N=C(\\C(=O)NC1C(=O)N2C(C(=O)O)=C(/C=C\\c3sc(Cl)nc3Cl)CSC12)c1csc(N)n1 (stereo not shown)"
  readout-value: 1.56
- molecule: "CO/N=C(\\C(=O)NC1C(=O)N2C(C(=O)O)=C(/C=C/c3ccc([N+](=O)[O-])o3)CSC12)c1csc(N)n1 (stereo not shown)"
  readout-value: 3.13
- molecule: "CO/N=C(\\C(=O)NC1C(=O)N2C(C(=O)O)=C(/C=C\\c3cnc(C)s3)CSC12)c1csc(N)n1 (stereo not shown)"
  readout-value: 0.78
- molecule: "CO/N=C(\\C(=O)NC1C(=O)N2C(C(=O)O)=C(/C=C\\c3ccco3)CSC12)c1csc(N)n1 (stereo not shown)"
  readout-value: 3.13
- molecule: "CO/N=C(\\C(=O)NC1C(=O)N2C(C(=O)O)=C(/C=C\\c3scnc3C)CSC12)c1csc(N)n1 (stereo not shown)"
  readout-value: 3.13

Here is another molecule to look at.
[in] Give recorded MIC. CO/N=C(\C(=O)NC1C(=O)N2C(C(=O)O)=C(C=Cc3ccccc3F)CSC12)c1csc(N)n1 (mixture of isomers)
[out] 1.56

###

# Tested on: Escherichia coli NIHJ JC-2
# experimental-protocol: MIC by agar-dilution method, Escherichia coli NIHJ JC-2
# Assay type: cell-based
# condition-set: NIHJJC2, read-out: MIC.
Reported values of MIC for individual entries
A number alone suffices; assume µg/mL.

Example compounds with recorded MIC:
- compound: "CO/N=C(\\C(=O)NC1C(=O)N2C(C(=O)O)=C(/C=C/c3ccc([N+](=O)[O-])o3)CSC12)c1csc(N)n1 (stereo not drawn)"
  system-under-test: "Escherichia coli NIHJ JC-2"
  unit-descriptor: "µg/mL"
  MIC: 6.25
- compound: "CO/N=C(\\C(=O)NC1C(=O)N2C(C(=O)O)=C(C=Cc3sc[n+](C)c3C)CSC12)c1csc(N)n1 (stereo not drawn)"
  system-under-test: "Escherichia coli NIHJ JC-2"
  unit-descriptor: "µg/mL"
  MIC: 0.1
- compound: "CO/N=C(\\C(=O)NC1C(=O)N2C(C(=O)O)=C(/C=C\\c3cnc(C)s3)CSC12)c1csc(N)n1 (stereo not drawn)"
  system-under-test: "Escherichia coli NIHJ JC-2"
  unit-descriptor: "µg/mL"
  MIC: 1.56
- compound: "CO/N=C(\\C(=O)NC1C(=O)N2C(C(=O)O)=C(/C=C\\c3ccco3)CSC12)c1csc(N)n1 (stereo not drawn)"
  system-under-test: "Escherichia coli NIHJ JC-2"
  unit-descriptor: "µg/mL"
  MIC: 3.13
- compound: "CO/N=C(\\C(=O)NC1C(=O)N2C(C(=O)O)=C(C=Cc3ccccc3F)CSC12)c1csc(N)n1 (mixture of isomers)"
  system-under-test: "Escherichia coli NIHJ JC-2"
  unit-descriptor: "µg/mL"
  MIC: 3.13

# next compound below
[in] // fetch MIC for CO/N=C(\C(=O)NC1C(=O)N2C(C(=O)O)=C(/C=C\c3cncs3)CSC12)c1csc(N)n1 (stereo not drawn) ; system: Escherichia coli NIHJ JC-2
[out] 0.39
